tested on: Mycobacterium smegmatis strain RHS 234; type: cell-based; conditions: Mycolicibacterium smegmatis, RHS234, 120 h
Hi! Could you tag entries with MIC below 0.2 µM as label 1, and those at or above as label 0? Much appreciated.

Examples from the recorded data:
COMPOUND	CLASS_ASSIGNMENT
CO[C@H]1/C=C/O[C@@]2(C)Oc3c(C)c(O)c4c(O)c(c5c(nc6cc(C)ccn65)c4c3C2=O)NC(=O)/C(C)=C\C=C\[C@H](C)[C@H](O)[C@@H](C)[C@@H](O)[C@@H](C)[C@H](OC(C)=O)[C@@H]1C [Rifaximin]	label 1
CO[C@H]1/C=C/O[C@@]2(C)Oc3c(C)c(O)c4c(=O)c(c5oc6cc(N7CCN(CC(C)C)CC7)cc(O)c6nc-5c4c3C2=O)NC(=O)/C(C)=C\C=C\[C@H](C)[C@H](O)[C@@H](C)[C@@H](O)[C@@H](C)[C@H](OC(C)=O)[C@@H]1C [Rifalazil]	label 1
CO[C@H]1/C=C/O[C@@]2(C)Oc3c(C)c(O)c4c(O)c(c(/C=N/N5CCN(C)CC5)c(O)c4c3C2=O)NC(=O)/C(C)=C\C=C\[C@H](C)[C@H](O)[C@@H](C)[C@@H](O)[C@@H](C)[C@H](OC(C)=O)[C@@H]1C [Rifampin]	label 0
CO[C@H]1/C=C/O[C@@]2(C)Oc3c(C)c(O)c4c(O)c(cc(O)c4c3C2=O)NC(=O)/C(C)=C\C=C\[C@H](C)[C@H](O)[C@@H](C)[C@@H](O)[C@@H](C)[C@H](OC(C)=O)[C@@H]1C [Rifamycin SV]	label 0
CO[C@H]1/C=C/O[C@@]2(C)Oc3c(C)c(O)c4c(c3C2=O)C2=NC3(CCN(CC(C)C)CC3)NC2=C(NC(=O)/C(C)=C\C=C\[C@H](C)[C@H](O)[C@@H](C)[C@@H](O)[C@@H](C)[C@H](OC(C)=O)[C@@H]1C)C4=O [Rifabutin]	label 1

Below: the item to evaluate.
**Query** Hi there! Is MIC for CO[C@H]1/C=C/O[C@@]2(C)Oc3c(C)c(O)c4c(O)c(c(/C=N/N5CCN(C6CCCC6)CC5)c(O)c4c3C2=O)NC(=O)/C(C)=C\C=C\[C@H](C)[C@H](O)[C@@H](C)[C@@H](O)[C@@H](C)[C@H](OC(C)=O)[C@@H]1C [Rifapentine] below 0.2 µM, do you know?
**Result** label 1

---

// reported MIC for each item listed
tested on: Mycobacterium smegmatis strain mc^2155; test: microbe, parasite or virus in culture; format: cell-based; settings: Mycolicibacterium smegmatis, MC^2155, 120 h
Please respond with the number in µM and leave the unit unwritten.

Use the examples below as a reference point.
CO[C@H]1/C=C/O[C@@]2(C)Oc3c(C)c(O)c4c(=O)c(c5oc6cc(N7CCN(CC(C)C)CC7)cc(O)c6nc-5c4c3C2=O)NC(=O)/C(C)=C\C=C\[C@H](C)[C@H](O)[C@@H](C)[C@@H](O)[C@@H](C)[C@H](OC(C)=O)[C@@H]1C 0.13
CO[C@H]1/C=C/O[C@@]2(C)Oc3c(C)c(O)c4c(c3C2=O)C2=NC3(CCN(CC(C)C)CC3)NC2=C(NC(=O)/C(C)=C\C=C\[C@H](C)[C@H](O)[C@@H](C)[C@@H](O)[C@@H](C)[C@H](OC(C)=O)[C@@H]1C)C4=O 0.3

**Query** Which MIC reading was recorded for the compound "CO[C@H]1/C=C/O[C@@]2(C)Oc3c(C)c(O)c4c(O)c(c(/C=N/N5CCN(C)CC5)c(O)c4c3C2=O)NC(=O)/C(C)=C\C=C\[C@H](C)[C@H](O)[C@@H](C)[C@@H](O)[C@@H](C)[C@H](OC(C)=O)[C@@H]1C" ?
**Result** 2.43

---

test system: Mycobacterium smegmatis strain mc^2155; experiment: microbe, parasite or virus in culture; format: cell-based; conditions: Mycolicibacterium smegmatis, MC^2155, 120 h
TEST_READOUT: MIC

Use the examples below as a reference point.
CO[C@H]1/C=C/O[C@@]2(C)Oc3c(C)c(O)c4c(O)c(c5c(nc6cc(C)ccn65)c4c3C2=O)NC(=O)/C(C)=C\C=C\[C@H](C)[C@H](O)[C@@H](C)[C@@H](O)[C@@H](C)[C@H](OC(C)=O)[C@@H]1C < 1.27 µM
CO[C@H]1/C=C/O[C@@]2(C)Oc3c(C)c(O)c4c(O)c(c(/C=N/N5CCN(C6CCCC6)CC5)c(O)c4c3C2=O)NC(=O)/C(C)=C\C=C\[C@H](C)[C@H](O)[C@@H](C)[C@@H](O)[C@@H](C)[C@H](OC(C)=O)[C@@H]1C < 2.28 µM

Now examine the next entry.
**Query** Which MIC reading was recorded for the compound "CO[C@H]1/C=C/O[C@@]2(C)Oc3c(C)c(O)c4c(O)c(cc(O)c4c3C2=O)NC(=O)/C(C)=C\C=C\[C@H](C)[C@H](O)[C@@H](C)[C@@H](O)[C@@H](C)[C@H](OC(C)=O)[C@@H]1C" ?
**Result** < 1.38 µM
